The reported measurements were obtained from PubChem BioAssay (NCI).

test system: EKVX NSCLC; test: NCI-60 one-dose screen, 48 h (100 = growth as untreated, 0 = no growth, -100 = all killed); settings: 10 µM unless noted
Compounds without any hit were thinned out: in the full panel of roughly 83,000, 20% have a hit.
parameter_measured: growth (%)
Dear colleague, please return just the value in %, with no unit written.

NC(N)=N/N=C(/c1ccccc1)c1ccc(F)cc1 = 35.1
CCOc1nc(-c2ccccc2)cc2c(O)c(C(=O)O)[nH]c(=O)c12 = 98.2
O=S(=O)(Nc1ccc(OC(F)F)cc1)c1ccc(-c2cnc(C3CC3)o2)cc1 = 61.7
C=C1c2nc3ccccc3n2C=C(c2ccc(OC)cc2)N1Cc1ccccc1 = 62.6
CC/C=C\C[C@H]1C/C=C2/C(=O)C=C[C@H]2C/C=C\CCCC(=O)O1 = 45
CCCCN1CCCn2c1nc1c2c(=O)n(CCC)c(=O)n1CCC = 97.2
COc1ccc(CN2c3ccccc3Sc3ccccc32)cc1O = 36.7
COc1ccc(/C=C/c2nc3ccccc3nc2/C=C/c2ccc(OC)cc2)cc1 = 96.2

[ask] Return reported growth; argument: COc1ccc(S(=O)(=O)N2CC3(COC3)C2)cc1NC(=O)c1[nH]c(C)c2c1CCCCC2=O
[reply] 58.2

[ask] And CC(C)(C)CC(C)(C)c1ccc(OCCOCC[N+](C)(C)Cc2ccccc2)cc1 ?
[reply] 22.3

====

test system: SK-OV-3 ovarian; assay: NCI-60 one-dose screen, 48 h; details: 10 µM unless noted
The panel holds about 83,000 compounds, 20% with a hit somewhere; the sample as a whole holds those more often. Calls of active or inactive are those of the source. Rule for the calls: active = growth percent below 10; inactive = the rest.
Outcomes you can answer with include only these: active, inactive

Cc1cc(N2CCSCC2)nc(NC2CCCC(Nc3ccnc4cc(Cl)ccc34)C2)n1 (stereo not drawn) = inactive
N#CCCN=Nc1c(O)[nH]c2ccc(F)cc12 = inactive
Oc1ccc(N=Cc2ccccc2O)cc1 = inactive
CC(O)CN(CC(C)O)c1ccc2c(c1)Cc1cc([N+](=O)[O-])ccc1-2 (stereo not drawn) = inactive
Cc1[nH]c(-c2ccc3cc[nH]c3c2)c2c1C(=O)CCCC2 = inactive

[ask] Tell me the recorded outcome of this test for C/C1=C\CC[C@@]2(C)O[C@H]2[C@H]2OC(=O)C(CN3CCN(CC4C(=O)O[C@H]5[C@H]4CC/C(C)=C/CC[C@@]4(C)O[C@@H]54)CC3)[C@@H]2CC1 (stereo partly drawn) .
[reply] inactive

[ask] What do you have for O=C1c2cccc3cccc(c23)C(=O)N1CCCCCN1CCN(CCCCCOc2ccc(-c3nc4ccc(N5CCOCC5)cc4[nH]3)cc2)CC1 ?
[reply] inactive

[ask] What about this compound? Cc1nc(Nc2ccc(F)c(Cl)c2)sc1C(=O)O
[reply] inactive

[ask] Quick one: Cc1c(/C=C/[N+](=O)[O-])ccc2c1[nH]c1ccccc12
[reply] inactive

[ask] Ok, now COc1cc(C)c(C2C(C#N)=C(N)Oc3n[nH]c(-c4cccs4)c32)cc1C(C)C (stereo not drawn)
[reply] inactive

[ask] Subsequent entry: Cc1cc2nc(NC(=O)CN3CCN(CCN4C(=O)c5cccc6cccc(c56)C4=O)CC3)sc2cc1C
[reply] inactive

[ask] Now the same for C[n+]1ccccc1/C=C/c1ccc2cccc(O)c2n1
[reply] inactive

[ask] And the next one, O=c1nc2oc3ccc4ccccc4c3cc-2s1 ?
[reply] inactive
